Source of measurements: patent US8642770B2

Measurement kind: melting point (°C)

// lookup melting point for Cn1c(CNC2CCC(C)(O)CC2)cc2cc(NC(=O)c3ccc(OC[C@@H]4CCCO4)cc3)ccc21 (stereo partly shown)
154

melting point lookup needed for `Cc1c(NC(=O)c2ccc(OC[C@@H]3CCCO3)cc2F)ccc2c1cc(CNCC1CCOCC1)n2C` , thanks.
149

---

Target: human MCHR1 (Homo sapiens, UniProt Q99705)
Construct: expressed in transfected cells; host or cells: CHO cell clone 57 (membrane fraction)
Sequence (Q99705 whole entry): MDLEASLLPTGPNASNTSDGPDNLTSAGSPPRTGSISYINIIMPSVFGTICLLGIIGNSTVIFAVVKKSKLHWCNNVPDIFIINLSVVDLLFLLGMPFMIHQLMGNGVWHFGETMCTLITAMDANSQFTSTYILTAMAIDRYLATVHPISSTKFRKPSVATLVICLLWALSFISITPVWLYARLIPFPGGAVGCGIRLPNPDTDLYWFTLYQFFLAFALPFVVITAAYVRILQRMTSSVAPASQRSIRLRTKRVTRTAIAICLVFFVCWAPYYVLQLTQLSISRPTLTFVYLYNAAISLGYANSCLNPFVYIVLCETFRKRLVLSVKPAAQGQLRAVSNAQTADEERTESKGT
Assay: MCH receptor 1 antagonistic activity, Ca2+ mobilization assay in human MCHR1-expressing CHO cells
Format: cell-based
Conditions: test compound 0.1 μM; human MCHR1-expressing CHO cell; ligand MCH (4-19) peptide 20 nM; Fluo4 fluorescence; read-out: Inhibition rate (%)
Description: Measurement of MCH Receptor 1 Antagonistic Activity of Test Compound Using Ca^2+ Mobilization Assay CHO cell (CHO dhfr^−, clone #4) expressing a recombinant human MCHR1 gene for Ca^2+ mobilization assay was prepared by us. The cell was cultured in MEMα medium [445 mL of MEMα medium without nucleic acid and added with 5 mL of Penicillin-Streptomycin (Invitrogen) and 50 mL of dialyzed fetal bovine serum]. […]
Measurement kind: inhibition at 0.1 µM (%)

Given `Cc1c(NC(=O)c2ccc(OCC3CC3)cc2)ccc2c1cc(CNCC(C)(C)O)n2C` , state its recorded inhibition at 0.1 µM.
97

Query: inhibition at 0.1 µM; subject: `Cc1c(NC(=O)c2ccc(OC[C@@H]3CCCO3)cc2)ccc2cc(CN[C@H]3CC[C@](C)(O)CC3)n(C)c12`
97

// query inhibition at 0.1 µM value for entry `Cc1c(NC(=O)c2ccc(OC[C@@H]3CCCO3)cc2)ccc2c1cc(CNCC1CCOCC1)n2C`
99

Data request, read-out inhibition at 0.1 µM, for `Cn1c(CNCC2CCOCC2)cc2cc(NC(=O)c3ccc(OC[C@@H]4CCCO4)cc3)ccc21`
97

Any idea what its inhibition at 0.1 µM is? The compound is `Cc1c(NC(=O)c2ccc(OC[C@@H]3CCCO3)cc2F)ccc2cc(CN[C@H]3CC[C@](C)(O)CC3)n(C)c12`
98

# lookup: inhibition at 0.1 µM of `Cc1c(NC(=O)c2ccc(OC[C@@H]3CCCO3)cc2)ccc2cc(CNCC3CCOCC3)n(C)c12`
96

Suppose we examine the compound `Cc1c(NC(=O)c2ccc(OC[C@@H]3CCCO3)cc2F)ccc2c1cc(CNCC(C)(C)O)n2C` ; what inhibition at 0.1 µM value has been reported?
97

Bench note: what inhibition at 0.1 µM did `Cc1c(NC(=O)c2ccc(OC[C@@H]3CCCO3)cc2)ccc2c1cc(CN[C@H]1CC[C@](C)(O)CC1)n2C` show?
96

---

Documented melting point across a set of molecules

In the examples that follow, each entry is paired with its recorded melting point.
Which melting point is reported for this molecule? `Cc1c(NC(=O)c2ccc(OCC3CC3)cc2)ccc2cc(CNCC(C)(C)O)[nH]c12`
170 °C

Please look up its melting point: `Cn1c(CNCC(C)(C)O)cc2cc(NC(=O)c3ccc(OC[C@@H]4CCCO4)cc3F)ccc21`
159 to 160 °C

What value of melting point has been reported for the following molecule? `Cc1c(CNCC(C)(C)C)[nH]c2c(C)c(NC(=O)c3ccc(OC[C@@H]4CCCO4)cc3)ccc12`
178 to 179 °C

Proceed to the following item.
State the recorded melting point for this entry: `Cc1c(NC(=O)c2ccc(OC[C@@H]3CCCO3)cc2F)ccc2c1cc(CNCC(C)C)n2C`
104 to 105 °C

---

The reader will find reported melting point values listed item by item below.

Look over these answered cases.
Item under review: `Cc1c(NC(=O)c2ccc(OCC3CC3)cc2)ccc2[nH]c(CNCC(C)(C)O)cc12` . Reported melting point?
186 °C

Give the measured melting point of `Cc1c(CN[C@H]2CC[C@](C)(O)CC2)n(C)c2ccc(NC(=O)c3ccc(OC[C@@H]4CCCO4)cc3)cc12` .
172 to 173 °C

Consider the compound `Cc1c(NC(=O)c2ccc(OC[C@@H]3CCCO3)cc2)ccc2c1cc(CNCC(C)(C)C)n2C` and give its measured melting point.
179 °C

Which melting point is listed for `Cc1c(NC(=O)c2ccc(OC[C@@H]3CCCO3)cc2F)ccc2cc(CNCC(C)(C)O)n(C)c12` ?
132 to 133 °C

For the compound `Cc1c(NC(=O)c2ccc(OC[C@@H]3CCCO3)cc2)ccc2[nH]c(CNCC(C)(C)O)cc12` , what melting point is on record?
169 to 170 °C

Any idea what melting point was measured for `Cc1c(CNCC2CCOCC2)[nH]c2ccc(NC(=O)c3ccc(OC[C@@H]4CCCO4)cc3)cc12` ?
146 to 147 °C

Which melting point value belongs to `Cc1c(CNCC(C)C)[nH]c2c(C)c(NC(=O)c3ccc(OC[C@@H]4CCCO4)cc3)ccc12` ?
118 to 119 °C

API: the following record is the query input.
# query: melting point of entry `Cc1c(CNCC(C)C)n(C)c2ccc(NC(=O)c3ccc(OCC4CC4)cc3)cc12`
142 to 143 °C

---

Measurement kind: melting point (°C)

Query: melting point; subject: `Cc1c(NC(=O)c2ccc(OCC3CC3)cc2)ccc2cc(CNCC(C)(C)O)n(C)c12`
180

Requested field: melting point. Item: `Cc1c(NC(=O)c2ccc(C#CC3(O)CC3)cc2)ccc2cc(CNCC(C)C)n(C)c12`
186

Data request, read-out melting point, for `CCCNCc1cc2c(C)c(NC(=O)c3ccc(OC[C@@H]4CCCO4)cc3)ccc2n1C`
225

What value of measured melting point is listed for `Cn1c(CNCC(C)(C)C)cc2cc(NC(=O)c3ccc(C#CC4(O)CC4)cc3)ccc21` ?
173

What does the record list as melting point for `Cc1c(NC(=O)c2ccc(OC[C@@H]3CCCO3)cc2)ccc2cc(CNCC(C)(C)C)[nH]c12` ?
168

Name the recorded melting point for `Cc1c(NC(=O)c2ccc(OCC3CC3)cc2)ccc2cc(CN[C@H]3CC[C@](C)(O)CC3)n(C)c12` .
167

Need melting point, item `Cc1c(CN[C@H]2CC[C@](C)(O)CC2)n(C)c2ccc(NC(=O)c3ccc(OCC4CC4)cc3)cc12`
191

Consider the compound shown here: `Cc1c(NC(=O)c2ccc(OC[C@@H]3CCCO3)cc2)ccc2c1cc(CNC1CCCC1)n2C` What is its recorded melting point?
189

Give the measured melting point of `Cc1c(NC(=O)c2ccc(OC[C@@H]3CCCO3)cc2F)ccc2c1cc(CNCC(C)(C)O)n2C` .
118

Bench note: what melting point did `Cn1c(CNC[C@@H]2CCCO2)cc2cc(NC(=O)c3ccc(OCC4CC4)cc3)ccc21` show?
139

Suppose we examine the compound `O=C(Nc1ccc2[nH]c(CNCC3CCOCC3)cc2c1)c1ccc(OCC2CC2)cc1` ; what melting point value has been reported?
160

---

Measurement kind: melting point

Previously resolved entries follow.
Would you mind telling me what melting point value was observed for `Cc1c(NC(=O)c2ccc(OC[C@@H]3CCCO3)cc2)ccc2[nH]c(CNCC3CCOCC3)cc12` ?
166 to 167 °C

Give the measured melting point of `Cc1c(CNCC(C)(C)C)n(C)c2ccc(NC(=O)c3ccc(OC[C@@H]4CCCO4)cc3)cc12` .
165 to 166 °C

Entry under review: `Cc1c(CNCC(C)(C)C)n(C)c2ccc(NC(=O)c3ccc(OCC4CC4)cc3)cc12` . Reported melting point?
169 to 170 °C

State the recorded melting point for this entry: `Cc1c(CN[C@H]2CC[C@](C)(O)CC2)[nH]c2c(C)c(NC(=O)c3ccc(OC[C@@H]4CCCO4)cc3F)ccc12`
177 to 178 °C

Report melting point for `Cc1c(NC(=O)c2ccc(OC[C@@H]3CCCO3)cc2F)ccc2cc(CN[C@H]3CC[C@](C)(O)CC3)[nH]c12` please.
152 to 153 °C

Below: the item to evaluate.
Would you mind telling me what melting point value was observed for `Cc1c(NC(=O)c2ccc(OC[C@@H]3CCCO3)cc2)ccc2cc(CN3CCC(C)(O)CC3)n(C)c12` ?
140 to 141 °C

---

melting point values by entry

Worked cases, melting point given:
Fill blank: measured melting point of the compound Cc1c(NC(=O)c2ccc(OCC3CC3)cc2)ccc2c1cc(CNCC(C)(C)O)n2C [Example 50] is ____.
175 to 176 °C

Item under review: Cc1c(NC(=O)c2ccc(OC[C@@H]3CCCO3)cc2)ccc2cc(CN3CCCC3)[nH]c12 [Example 74] . Reported melting point?
172 to 173 °C

Dear colleague, I am looking for the recorded melting point of the following compound: Cc1c(CNCC2CCOCC2)n(C)c2ccc(NC(=O)c3ccc(OCC4CC4)cc3)cc12 [Example 40]
176 to 177 °C

Would you mind telling me what melting point value was observed for Cc1c(CNCC(C)(C)O)n(C)c2ccc(NC(=O)c3ccc(OC[C@@H]4CCCO4)cc3)cc12 [Example 36] ?
145 to 146 °C

Next:
// query melting point value for entry Cc1c(NC(=O)c2ccc(OC[C@@H]3CCCO3)cc2)ccc2c1cc(CNCC1CCOCC1)n2C [Example 55]
166 to 167 °C

Item under review: CC(C)CNCc1cc2cc(NC(=O)c3ccc(C#CC4(O)CCC4)cc3)ccc2n1C [Example 29] . Reported melting point?
168 to 169 °C

Which melting point is listed for Cc1c(NC(=O)c2ccc(OCC3CC3)cc2)ccc2cc(CN3CCC(C)(O)CC3)n(C)c12 [Example 80] ?
152 to 155 °C

What does the data say about its melting point? Entry: Cn1c(CN[C@H]2CC[C@](C)(O)CC2)cc2cc(NC(=O)c3ccc(OC[C@@H]4CCCO4)cc3F)ccc21 [Example 28]
138 to 139 °C

State the recorded melting point for this entry: Cn1c(CNCC2CCOC2)cc2cc(NC(=O)c3ccc(OC[C@@H]4CCCO4)cc3)ccc21 (stereo partly shown) [Example 20]
128 to 129 °C

May I ask what melting point has been recorded for Cc1c(NC(=O)c2ccc(C#CC3(O)CCC3)cc2)ccc2cc(CNCC(C)(C)C)n(C)c12 [Example 93] ?
232 to 233 °C
